- testedTarget: GABA A receptor α5β3γ2 (Homo sapiens, UniProt P18507+P31644)
- Construct: expressed in transfected cells; host or cells: HEK293 (transiently transfected; membranes)
- assaySummary: [3H]flumazenil competition binding, membranes of HEK293 cells expressing human GABA A α5β3γ2
- conditions: human α5β3γ2 in HEK293 (transiently transfected); 0.5 nM [3H]flumazenil; 1 hour at 4° C.; means of two determinations; read-out: Ki[nM]hα5
measurementLabel: Ki (nM)
# unit: nM | format: bare number

{"molecule": "Cc1onc(-c2ccccc2)c1-c1cn2cc(C(=O)NCc3ccco3)ccc2n1 [Example 43]", "Ki, nM": 36.9}
{"molecule": "Cc1onc(-c2ccccc2)c1-c1cn2ccc(C(=O)NCC3CC3)cc2n1 [Example 11]", "Ki, nM": 178}
{"molecule": "Cc1onc(-c2ccccc2)c1-c1cn2cc(C(=O)NC3CC3)ccc2n1 [Example 33]", "Ki, nM": 23.6}

input: Write down measured Ki (GABA A receptor α5β3γ2 (Homo sapiens, UniProt P18507+P31644)) for this molecule. Cc1onc(-c2ccccc2)c1-c1cn2cc(N)ccc2n1 [Example 54]
output: 88.1
